test-system: T1, Cyno ST2-fc (cyno; human, UniProt A0A2K5UDB8 19-331)
T1 construct: also called cyno ST2 fused with a human IgG1 Fc tag at the C-terminus
T1 sequence: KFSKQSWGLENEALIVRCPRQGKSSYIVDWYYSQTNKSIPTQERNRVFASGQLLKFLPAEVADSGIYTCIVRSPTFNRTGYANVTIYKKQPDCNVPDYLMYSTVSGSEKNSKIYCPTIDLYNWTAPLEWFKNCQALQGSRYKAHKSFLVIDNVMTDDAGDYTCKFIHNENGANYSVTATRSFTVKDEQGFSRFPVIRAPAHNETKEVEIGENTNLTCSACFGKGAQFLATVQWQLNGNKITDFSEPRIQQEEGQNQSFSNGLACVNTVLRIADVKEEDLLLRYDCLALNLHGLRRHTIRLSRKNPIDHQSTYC
assay-text: ELISA, coated cyno ST2-fc

# binder, Relative activity (%)
records = [
    ("5886-156H+L (antibody, V domains shown, murine antibody) VH: DVQLQQSGPGLVKPSQSLSLTCTVTGYSITSDYAWNWIRQFPGNKLEWMGYIDYSGSTTYNPSLKSRFSITRDTSKNQFFLQLNSVTTEDTATYYCASTVIDSMDYWGQGTSVTVSS VL: DIVLTQSPASLAVSLGQRATISCRASKSVSTSGHSYMHWYQQKPGQPPKLLIYLASNLESGVPARFSGSGSGTDFTLNINPMEEEDAATYYCQHSREFPFTFGSGTKLEIK", 66.4),
    ("5887-537H3+L1 (antibody, V domains shown, murine antibody; also called 5887-537H3H+L1) VH: QVTLKESGPGILQPSQTLSLTCSFSGFSLSTSGMGVGWIRQPSGKGLEWLAHIWWDDVKQYNPALKSRLTISKDTSSSQVFLKSASVDTADTATYYCARIGGDYDYFDFWGQGTTLTVSS VL: DIVLTQSPASLAVSLGQRATISCRASESVEYSGTSLMQWYQQKPGQPPKLLIYVASNVESGVPARFSGSGSGTDFSLNIHPVEEDDIAMYFCQQSRKVPWTFGGGTKLEIK", 78.5),
    ("5888-379H1+L2 (antibody, V domains shown, murine antibody) VH: QIQLAQSGPELKKPGETVKISCKASGYTFINYGMNWVKQAPGKDLKWMGWINTYIGEPTYGDNFKGRFAFSLETSASTVYLQINNLKNEDTATYFCAREGDGFAYWGQGTLVTVSA VL: DIVMTQSPPSLSVSVGEKVTMSCKSSQSLLYSGNQNNYLAWYQQKPGQPPKLLIYGASTRESGVPDRFTGSGSGTDFTLTISSVQAEDLAVYYCQNDHSYPYTFGGGTKLEIK", 40.6),
    ("5887-41H+L (antibody, V domains shown, murine antibody) VH: DVQLQQSGPGLVKPSQSLSLTCTVTGYSITSDYAWDWIRQFPGNKLEWMGYIRYSGDTYYNPSLKSRISITRDTSKNQFFLQLNSVTTEDTATYYCATTMMDTMDYWGQGTSVTVSS VL: DIVLTQSPASLTVSLGQRATISCRASKSVSTSGNSYMHWYQQKPGQPPKLLIYLASNLESGVPARFSGSGSGTDFTLNIHPVEEEDAATYYCQHSREFPLTFGAGTKLELK", 21.9),
]
